- test: compound binding in COS7 lysate, probe aLAP1, primary screen, cell lysate, small-molecule microarray (AID 1124);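 also: lysate comes from COS7 cells expressing LAP1 and is applied at 0.3 µg/mL; score merges spot fluorescence near 667 nm with signal-to-noise over triplicate slides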
- conditionNotes: probe aLAP1, fluorescence, higher = more signal
assayReadout: composite z-score

molecule	val
C=CCOC(=O)[C@@H]1[C@H]2C(=O)O[C@H](c3ccccc3)[C@H](c3ccccc3)N2[C@H](c2ccc(OCCOC(=O)[C@@H]3C[C@@H]4C(=O)N[C@@H](Cc5ccccc5)C(=O)N4[C@@H]3c3cccc(OCCO)c3)cc2)[C@@]12C(=O)Nc1ccc(I)cc12	0.283
[N-]=[N+]=NCc1ccccc1C[C@@]1(C(=O)NCC(O)CO)N=C(c2ccc(OCCCO)cc2)O[C@@H]1c1ccccc1CN=[N+]=[N-] (stereo partly specified)	-0.0011
CCOC(=O)C1=C[C@@H](CC)N(S(=O)(=O)c2ccc(C)cc2)[C@H]1c1ccccc1	0.83
CC(c1ccccc1)C(O)C1C=CC2C(=O)NC(=O)C2N1Nc1ccccn1 (stereo unspecified)	0.398
COC(=O)C1=CC(CCCO)=CC(C2CC2)N(Cc2sc3ccccc3c2Cl)C=C1C(=O)OC (stereo unspecified)	1.01
COCCOC(=O)N1C(=O)[C@@]2(c3cc(C#CCNC(N)=O)ccc31)[C@H](C(=O)N1CCc3cc(OC)c(OC)cc3C1)[C@H]1C(=O)O[C@H](c3ccccc3)[C@H](c3ccccc3)N1[C@@H]2c1ccc(OCCO)cc1	0.406
CN(C)CCCCNC(=O)[C@H]1C[C@H]2C(=O)N[C@@H](Cc3ccccc3)C(=O)N2[C@H]1c1ccc(O)cc1	0.263
O=C1O[C@H](c2ccccc2)[C@H](c2ccccc2)N2[C@H]1[C@@H](C(=O)NC[C@H](O)c1ccccc1)[C@]1(C(=O)Nc3ccc(C#CCCO)cc31)[C@H]2c1ccc(O)cc1	1.11
Cc1cc(C)c(C(O)C2C=CC3C(=O)N(C)C(=O)C3N2Nc2ccccc2)c(C)c1 (stereo unspecified)	0.781
COc1ccc(C(O)C2C=CC3C(=O)N(c4ccccc4)C(=O)C3N2Nc2ccc([N+](=O)[O-])cc2)cc1OCc1ccccc1 (stereo unspecified)	1.22
CCOC(=O)C1=C[C@@H](C(C)C)N(S(=O)(=O)c2ccc(C)cc2)[C@H]1c1ccc(C(C)C)cc1	0.586
C=CC(COC(C)=O)NS(=O)(=O)c1ccc(Br)cc1 (stereo unspecified)	0.0423
O=C1OCCC=C[C@H]2OC34C=CCN(c5ccc6ccccc6c5)C(=O)[C@H]3N(CCCCCO)C(=O)[C@@H]4C12 (stereo partly specified)	0.859
COC(=O)c1ccc(OC)c(/C=C\CC(OC(C)=O)c2ccccc2)c1 (stereo unspecified)	-0.0984
O=c1cccc(C=Cc2ccccc2)o1	0.224
COc1ccc([Si](C)(C)[C@@H]2[C@@H](CCn3cc([C@H](O)c4ccccc4)nn3)O[C@]3(C(=O)N(Cc4cccc(N5CCOC5=O)c4)c4ccccc43)[C@H]2C)cc1	-0.0364
CCCCC(O)C1C=CC2C(=O)N(C3CCCCC3)C(=O)C2N1Nc1ccc(OC)cc1 (stereo unspecified)	0.56
Cc1c(NC(=O)CC#N)c(=O)n(-c2ccccc2)n1C	0.037
CN1CCC(CCCO)=CC1c1ccc(CN2CCCC2)cc1 (stereo unspecified)	0.714
CCC(CC)C(O)C1C=CC2C(=O)N(c3ccccc3)C(=O)C2N1Nc1ccc(C#N)cc1 (stereo unspecified)	-0.266
CCN(CC)c1ccc(N2CC=CC34O[C@@H]5C=CCCOC(=O)C5[C@H]3C(=O)N(CCCCCO)[C@@H]4C2=O)cc1 (stereo partly specified)	0.483
CCCN1C(=O)[C@]2(COC(c3ccc(OCCCO)cc3)=N2)Cc2ccccc21	-0.218
COc1c(C)cc(-c2cc3c(c(-c4ccc(Oc5ccccc5)cc4)n2)[Si](C(C)C)(C(C)C)OC3)cc1C	0.151
CCCN1C(=O)[C@@]2(CCC(=O)OC(C)(C)C)N=C(c3ccc(OCCCO)cc3)O[C@H]2c2ccccc21	0.0436
COC(=O)C[C@@H]1C[C@H](C)[C@]2(O1)C(=O)N(Cc1ccccc1)c1ccc(NC(C)=O)cc12	-0.0791
C[C@]1(C(=O)NCc2ccccc2)c2ccccc2C(=O)N(Cc2cc(F)cc(C(F)(F)F)c2)[C@H]1c1ccc(CO)cc1	0.325
COC(=O)c1ccc(C(O)C2C=CC3C(=O)N(c4ccccc4)C(=O)C3N2Nc2ccc(C#N)cc2)o1 (stereo unspecified)	0.387
O=C1O[C@@H](c2ccccc2)[C@@H](c2ccccc2)N2[C@@H](c3ccccc3OCCO)[C@]3(C(=O)Nc4ccc(C#CC5(O)CCCCCC5)cc43)[C@@H](C(=O)Nc3nc4ccccc4s3)[C@H]12	0.246
C=CC[C@@]1(C(=O)N2CCOCC2)N=C(c2ccc(OCCCO)cc2)O[C@@H]1c1ccccc1N=[N+]=[N-]	1
CC(C)NC(=O)[C@@H]1c2ccccc2C(=O)N(Cc2ccccc2Cl)[C@H]1c1ccc(CO)cc1	0.661
COc1ccc([Si](C)(C)[C@@H]2[C@@H](CC(=O)N3CCC[C@H]3CO)O[C@]3(C(=O)N(C)c4c(Br)cc(C)cc43)[C@H]2C)cc1	0.461
